protocol: amyloid nucleation score (Sup35N fusion, yeast selection) (log enrichment); library NNK3; higher = more nucleation; inactive = no reads after selection;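 also: zero at mode of non-aggregating sequences after 7 days selection at 30°C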
measurementName: amyloid nucleation score

Consider the worked cases shown below.
RPLTVKKY = -0.538
APKCNSTMCSCALMTLFLIS = 2.14
LMDFLKYAMFRGTMVCW = inactive
IHSPKLLAGAM = inactive
VSMVQVTIRKRAS = inactive
NSLFSNCARLYGNRGTLGLS = inactive
SAACLIMCVLLSILVQIFGM = inactive
VKKSDWAVGLVDSDQCVHFD = inactive
ATDNVCVI = inactive
TYLEMDIAPAMRLCS = inactive

In: Sample CCVSVKYWYYV — what was its amyloid nucleation score?
Out: 2.18

In: Data request, read-out amyloid nucleation score, for FNNFRFTGQHR
Out: inactive

In: Using the record for GSVGTNCSGFVAPELRSPRC , report its amyloid nucleation score.
Out: inactive

In: Report amyloid nucleation score for KSPVWIQIPLMCFLLEFVLG please.
Out: 0.471

In: Look at this substance and give its reported amyloid nucleation score. YNSSYFYMMCPFLSSFSPFS
Out: 2.81

In: Recorded amyloid nucleation score of QMLLDRRGKSTAATRVAPTD , please.
Out: inactive

---

protocol: amyloid nucleation score (Sup35N fusion, yeast selection) (log enrichment); library NNK2; higher = more nucleation; inactive = no reads after selection
Classify by amyloid nucleation score. Ranges: one: < -0.3; two: ≥ -0.3 and < 1; three: ≥ 1

Worked set:
LTGWMFISWSLTIPRPPTIE = one
PNSRGLSQVNLSFVENRRWS = three
IEVRRKPSLDLKLDGEGIVR = three
LPILCTWLM = one
NTANKFSLFKTGMVWVSFFT = three

In: Kindly identify the class of VCRNDRLVWCKLGVEFSGVA .
Out: three

In: Band assignment needed for KAWTLVRHDVLLYV please.
Out: one

In: Which category does the recorded amyloid nucleation score put GLRQVGA in?
Out: one

In: Pick a category. Item: YGMKSRVECVVY
Out: one

---

protocol: amyloid nucleation score (Sup35N fusion, yeast selection) (log enrichment); library NNK2; higher = more nucleation; inactive = no reads after selection
# binarize amyloid nucleation score: threshold -0.2 inclusive, high side t, low side f

LLADAVMWFTMGSEDHDCY = f
LLLHSIQIYDMRR = t
DSLTQILTVSCVCYEESMRI = f
GSWLCCSLRWSSSALGVGWA = t
SVMIWIIASNIDILSVVFRL = f
SYGLRSC = t
VFACLNVLSLMNEDFFVMSD = f
TLRSETMSDWYSRLHGFVFK = t
NCSHGLHLNVFNLVPYKSLI = t
AFFACRNASSHTLWMLG = t

In: Textbook exercise: given the entry SEFPIVQLCIAWDKLCKHLY , state whether its amyloid nucleation score is greater than or equal to -0.2.
Out: t

In: API: above_or_equal(metric=amyloid nucleation score, cutoff=-0.2) for item YRFRAIVNIYRCDVGFF
Out: t

In: Tell me whether amyloid nucleation score is at least -0.2 here: ELRSLAGIVSWLSLRYPPTE
Out: t

In: Has DPGSRDMIG a recorded amyloid nucleation score greater than or equal to -0.2?
Out: t

In: Test whether the substance VNFNMALDNYFSNFEYRVRN records amyloid nucleation score of -0.2 or higher.
Out: f

In: Can SVAFILVPNEWLVKRAASSG be said to have amyloid nucleation score at or above -0.2?
Out: f

In: For this substance, is measured amyloid nucleation score -0.2 or higher? FGVHVRCSEDDMAFALDLD
Out: t

In: Reported amyloid nucleation score at or above -0.2? NLAFTNALVLLWNSVYLKDE
Out: t

In: Item CTAQRNGKYDHGEDSLRLSR with amyloid nucleation score of -0.2 or above?
Out: t

In: Please tell me: is the substance DWPRLLNFWRY at or over -0.2 in terms of amyloid nucleation score?
Out: f

In: # bool: amyloid nucleation score of NNSMLLSDTLLGYRRTGLDC >= -0.2
Out: t
